- tested_target: T1, His-tagged PCSK9Δhelix (human, UniProt Q8NBP7 31-152; Q8NBP7 168-692)
- T1 construct: Construct M1-Q692 with engineered TEV site, cut by TEV protease; new N-terminus of the catalytic domain is S-A168; also called His-PCSK9Δhelix
- T1 sequence (Q8NBP7 31-152, stated change not applied, chain 1 of 2): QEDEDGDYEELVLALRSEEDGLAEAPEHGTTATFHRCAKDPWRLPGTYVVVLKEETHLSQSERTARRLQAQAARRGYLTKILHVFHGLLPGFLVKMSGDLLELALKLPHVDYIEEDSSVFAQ
- T1 sequence (Q8NBP7 other isoform, or with tags, fused parts or gaps mutant, chain 2 of 2): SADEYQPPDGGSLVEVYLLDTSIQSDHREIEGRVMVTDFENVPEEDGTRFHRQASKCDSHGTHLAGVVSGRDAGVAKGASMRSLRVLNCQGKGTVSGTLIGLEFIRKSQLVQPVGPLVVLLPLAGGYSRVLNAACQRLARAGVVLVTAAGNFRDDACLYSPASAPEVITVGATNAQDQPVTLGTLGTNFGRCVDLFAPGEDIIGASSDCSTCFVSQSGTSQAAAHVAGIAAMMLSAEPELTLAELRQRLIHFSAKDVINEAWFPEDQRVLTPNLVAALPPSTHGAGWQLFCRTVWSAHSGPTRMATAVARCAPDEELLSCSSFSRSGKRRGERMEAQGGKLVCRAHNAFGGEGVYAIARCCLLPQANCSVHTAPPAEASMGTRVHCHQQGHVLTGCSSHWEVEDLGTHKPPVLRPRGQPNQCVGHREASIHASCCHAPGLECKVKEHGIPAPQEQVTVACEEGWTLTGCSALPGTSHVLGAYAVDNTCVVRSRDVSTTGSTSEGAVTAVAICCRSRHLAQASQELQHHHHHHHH
- protocol_description: TR-FRET competition; His-PCSK9Δhelix, competitor Ab20
Bridge positions count the residues as written; N and C are the ends. Square brackets hold non-standard residues; d marks the D form. * marks the point of attachment. Trp(6-F) = N[C@@H](Cc1c[nH]c2cc(F)ccc12)C(=O)O; Pentanoyl = CCCCC(=O)*
readout: pIC50
Remember, pIC50 is on a log scale: it is -log10 of the molar concentration.

INSERT INTO measurements (binder, readout, endpoint_value) VALUES
  ('Ac-TVFTS[Trp(6-F)]EEYLDWVGSGCRLPWNLQRIGLPC-NH2 (disulfide 17-30 (inferred)) [Compound 241]', 'pIC50', 7.00);

Next binder, pIC50 to be filled in.
### Prompt Supply reported pIC50 belonging to this binder: Pentanoyl-[Trp(6-F)]NLVRIGLTR-NH2 (SMILES CCCCC(=O)N[C@@H](Cc1c[nH]c2cc(F)ccc12)C(=O)N[C@@H](CC(N)=O)C(=O)N[C@@H](CC(C)C)C(=O)N[C@H](C(=O)N[C@@H](CCCNC(=N)N)C(=O)N[C@H](C(=O)NCC(=O)N[C@@H](CC(C)C)C(=O)N[C@H](C(=O)N[C@@H](CCCNC(=N)N)C(N)=O)[C@@H](C)O)[C@@H](C)CC)C(C)C) [Compound 174]
### Response 5.21
